Below, each entry is listed with its recorded selectivity ratio.
# assay-remarks: Therapeutic index, ratio of TC50 for human HeLa cells to IC50 for HRV 14
# Format: cell-based
# condition-set: read-out: TI
No unit in the answer, only the number.

Known results for compounds:
>  <chemical-string>
C1=C(/C=C/c2ccccc2)COc2ccccc21

>  <endpoint>
selectivity ratio

>  <assay-result>
36.2

$$$$
>  <chemical-string>
Clc1ccc2c(c1)C=C(/C=C/c1ccccc1)CO2

>  <endpoint>
selectivity ratio

>  <assay-result>
8.95

$$$$
>  <chemical-string>
O=c1c(/C=C/c2ccc(Cl)cc2)coc2ccccc12

>  <endpoint>
selectivity ratio

>  <assay-result>
9.06

$$$$
>  <chemical-string>
O=c1c(/C=C/C=C/c2ccc(Cl)cc2)coc2ccccc12

>  <endpoint>
selectivity ratio

>  <assay-result>
12.3

$$$$
>  <chemical-string>
O=c1c(/C=C/C=C/c2ccccc2)coc2ccccc12

>  <endpoint>
selectivity ratio

>  <assay-result>
3.33

$$$$

Asked: Output measured selectivity ratio for this item: Clc1ccc(/C=C/C2=Cc3cc(Cl)ccc3OC2)cc1
Given back: 6.04

Asked: Output measured selectivity ratio for this item: Clc1ccc(/C=C/C2=Cc3ccccc3OC2)cc1
Given back: 5.44

Asked: Output measured selectivity ratio for this item: C1=C(/C=C/C=C/c2ccccc2)COc2ccccc21
Given back: 2

All figures here come from ChEMBL document CHEMBL1240484.
